Cited source for all entries: the RNAGym collection of RNA variant scans (doi:10.1073/pnas.2313332121)

B1: TPR t1 (parent)
chain: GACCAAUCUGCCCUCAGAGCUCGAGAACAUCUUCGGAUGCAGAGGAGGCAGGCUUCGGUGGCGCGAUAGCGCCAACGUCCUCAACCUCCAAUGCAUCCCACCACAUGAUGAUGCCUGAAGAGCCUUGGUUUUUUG

Variants of: B1
EXPERIMENT DESCRIPTION: polymerase ribozyme fitness, log enrichment relative to wild type (log ratio); higher = more active; in vitro selection for triplet polymerase activity
The entries below come with measured polymerase ribozyme fitness (log ratio) values attached.
READOUT LABEL: polymerase ribozyme fitness (log ratio)

• A6G G10A C11U G61A A100U G128A = -2.69
• G61C C94U = -1.25
• G51C C62U U112C = -2.27
• A2G U55G G135U = -1.42
• A18U G61C G120A = -4.67
• G47A U112A = -0.273
• A27G G51A U78C = -3.93
• C70U C101A U106C U133A = -0.685
• A5G C15U C72A C101U C124U = 0.428
• C8G C20U G42U A83U U116C C123A = -3.74
• U9C C53U A83C = 0.688
• G93U U96G = -1.89
• G45A U87G = -0.388
• G52U G61A = -1.14
• G58A G61A C85A G113A = 0.19
